Data origin: patent US9745265B2

Listing of recorded log10 of IC50 by entry.
biological target: human RORgammaT-Ligand Binding Domain (LBD) (Homo sapiens (Human)); assay: RORγ-Ligand Binding Domain TR-FRET Assay (SRC1_2 co-activator peptide); assay type: biochemical
Sequence (P51449 269-508): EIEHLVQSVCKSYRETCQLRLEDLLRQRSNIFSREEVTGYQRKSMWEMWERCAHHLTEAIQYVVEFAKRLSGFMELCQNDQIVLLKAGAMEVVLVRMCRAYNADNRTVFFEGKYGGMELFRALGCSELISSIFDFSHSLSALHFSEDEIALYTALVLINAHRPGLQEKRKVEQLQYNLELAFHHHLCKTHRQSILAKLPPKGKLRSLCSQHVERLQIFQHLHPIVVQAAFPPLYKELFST
Scale: log10; quantity: IC50; unit before log: µM

Here are 3 molecules together with their reported answers.
Molecule	log10 of IC50
CC(C(=O)n1nc(-c2ccc(C(=O)O)cc2F)c2ccccc21)c1ccccc1 (stereo not drawn)	0.64
O=C(O)c1ccc(-c2nn(C(=O)c3c(Cl)cccc3OC3CC3)c3ccccc23)cc1	-1.41
COCC(=O)n1nc(-c2ccc(C(=O)O)cc2F)c2ccccc21	0.75

Ask: Sample C[C@@H]1CN(C(=O)c2ccc3c(-c4ccc(C(=O)O)cc4F)nn(C(=O)c4c(Cl)cccc4C(F)(F)F)c3c2)C[C@H](C)O1 — what was its log10 of IC50?
Result: -1.82

Ask: Another molecule to check: CS(=O)(=O)Nc1cc(-c2nn(C(=O)c3c(Cl)cccc3C(F)(F)F)c3cccnc23)ccc1C(=O)O
Result: 0.22

Ask: Another molecule to check: O=C(O)c1ccc(-c2nn(C(=O)c3cccc4ccoc34)c3ccccc23)c(F)c1
Result: 0.17
